Experiment: Cytotoxicity assay on PMA-differentiated THP-1 macrophage-like cells
Assay type: cell-based, human
Conditions: human, PMA-differentiated THP-1 macrophage-like cells; 72 h, scalar dilutions from 100 to 3.12 μM; mean and 95% CI
Protocol: The human monocytic cell line THP-1 (ECACC 88081201) was cultured in RPMI-1640 medium supplemented with 10% heat-inactivated fetal bovine serum (FBS), 2 mM L-glutamine, 10 g/L non-essential amino acid, 1 mM sodium pyruvate, 100 μg/mL streptomycin, […]. Cells were maintained in a humidified incubator at 37°C and 5% CO2. All cell culture reagents were purchased from Sigma-Aldrich (St. Louis, MO, USA). The cytotoxicity of bisindole derivative compounds was evaluated on THP-1 cells. […]
CC50 at 72 h under 40 µM gets criterion met, anything at or over 40 µM gets criterion not met.

A selection of reference data follows.
INSERT INTO measurements (compound, class_assignment) VALUES
  ('Clc1ccc(CNCC(c2c[nH]c3cc(Br)ccc23)c2c[nH]c3cc(Br)ccc23)cc1', 'criterion met'),
  ('O=C(NCC(c1c[nH]c2cc(Br)ccc12)c1c[nH]c2cc(Br)ccc12)c1ccc(F)cc1', 'criterion met'),
  ('O=[N+]([O-])c1ccc(CNCC(c2c[nH]c3cc(Br)ccc23)c2c[nH]c3cc(Br)ccc23)cc1', 'criterion met'),
  ('Cn1cc(C(CN)c2cn(C)c3ccccc23)c2ccccc21', 'criterion not met'),
  ('Cc1ccc(S(=O)(=O)NCC(c2c[nH]c3cc(Br)ccc23)c2c[nH]c3cc(Br)ccc23)cc1', 'criterion met');

QUERY: Please check: CC50 at 72 h for CCCCCCCCCCCCCCCCOP(=O)([O-])OCC[N+](C)(C)C [miltefosine, reference compound] , strictly under 40 µM or not?
RESULT: criterion met

====

Test system: THP-1 cells
Test: Cytotoxicity assay on PMA-differentiated THP-1 macrophage-like cells
Type: cell-based, human
Details: CC50 in THP-1 / IC50 against L. infantum promastigotes
Observed Property: SI (CC50/IC50)
// keep it numeric: no unit symbol after the value

Worked cases, answers included:
INSERT INTO results (compound, measurement) VALUES
  ('Clc1ccc(CNCC(c2c[nH]c3cc(Br)ccc23)c2c[nH]c3cc(Br)ccc23)cc1 [2c]', 4.3),
  ('Cn1cc(C(CN)c2cn(C)c3ccccc23)c2ccccc21 [1h]', 10.1),
  ('Cc1ccc(S(=O)(=O)NCC(c2c[nH]c3cc(Br)ccc23)c2c[nH]c3cc(Br)ccc23)cc1 [4a]', 2.1),
  ('COC(=O)c1ccc2c(C(CN)c3c[nH]c4cc(C(=O)OC)ccc34)c[nH]c2c1 [1f]', 4.9);

As a next step, examine the compound that follows.
QUERY: Bench note: what SI (CC50/IC50) did NCC(c1c[nH]c2cc(Cl)ccc12)c1c[nH]c2cc(Cl)ccc12 [1c] show?
RESULT: 5.3

====

Test system: THP-1 cells
Assay: Cytotoxicity assay on PMA-differentiated THP-1 macrophage-like cells
Format: cell-based, human
Details: CC50 in THP-1 / IC50 against L. infantum promastigotes
Observed Property: SI (CC50/IC50)

Worked cases, answers included:
INSERT INTO assay_data (molecule, tgt, observed_property, measurement) VALUES
  ('CCCCCCCCCCCCCCCCOP(=O)([O-])OCC[N+](C)(C)C [miltefosine, reference compound]', 'THP-1 cells', 'SI (CC50/IC50)', 10.2),
  ('NCC(c1c[nH]c2cc(F)ccc12)c1c[nH]c2cc(F)ccc12', 'THP-1 cells', 'SI (CC50/IC50)', 4.7),
  ('O=[N+]([O-])c1ccc(CNCC(c2c[nH]c3cc(Br)ccc23)c2c[nH]c3cc(Br)ccc23)cc1', 'THP-1 cells', 'SI (CC50/IC50)', 3.4);

As a next step, examine the molecule that follows.
QUERY: Bench note: what SI (CC50/IC50) did `O=C(NCC(c1c[nH]c2cc(Br)ccc12)c1c[nH]c2cc(Br)ccc12)c1ccc(F)cc1` show?
RESULT: 2.3
